All values here come from PubChem BioAssay (NCI).

System: COLO 205 colon
experiment notes: NCI-60 one-dose screen, 48 h
cond: 10 µM unless noted
Compounds without any hit were thinned out: in the full panel of roughly 83,000, 20% have a hit. Activity calls are given as the source filed them. How the source made its calls: active means growth percent below 10; inactive means the rest.
Classes to choose from: TRUE (active), FALSE (inactive)

Use the examples below as a reference point.
compound	category
COc1cc2oc(-c3cccc(C(=O)Nc4ccc5c(c4)OCO5)c3)cc(=O)c2c(O)c1OC	FALSE
Cc1cc(C)c(S(=O)(=O)Oc2ccccc2[N+](=O)[O-])c(C)c1	FALSE
N#C/C(=C\c1cccc(C#N)c1)c1ccccc1	FALSE
O=c1[nH]nc(-c2ccccc2)c2sc3ncc(-c4ccc(Br)cc4)n3c12	FALSE
CC(C)(C)c1cc(/C=N/NC(=O)c2ccccc2NC(=O)c2cccs2)c(O)c(C(C)(C)C)c1	TRUE

Just curious, what result did Cc1ccc(S(=O)(=O)NNC(=O)/C(=C\c2ccc(Cl)cc2)c2nc3ccccc3s2)cc1 get here?
FALSE

Assay result, entry COc1cccc2c1c1nc3cc(C)c(C)cc3nc1n2CCN(C)C — outcome?
TRUE

Hi, do you know how N#Cc1c(NCc2ccccc2I)sc2c1CCCCC2 came out in this test?
FALSE

Could you check what this test reported for O=S(=O)(NCCNc1nccc(-c2c(-c3cccc(F)c3)nc3sccn23)n1)c1ccccc1 ?
FALSE

For CCN(CC)c1ccc(/C=N/NC(=O)CSc2nc3ccccc3c(=O)n2Cc2ccc(S(N)(=O)=O)cc2)c(O)c1 , which call appears in the assay record?
TRUE

Answer briefly: the call reported for O=C(/C=C(/C=C/c1csc2ccccc12)OB(F)F)/C=C/c1csc2ccccc12 in this assay.
TRUE

I'd appreciate the recorded outcome for O=S(=O)(Nc1ccc(-n2cnc3cc(-c4ccc(O)cc4)ccc32)cc1)c1ccccc1 from this test.
FALSE

Which result was noted for this compound in the test: Cc1ccc(-c2nc3ccccn3c2/C=C2/C(=O)Nc3cc(Cl)ccc32)cc1
FALSE
